The measured values listed here are drawn from the SangsterLogP compilation.

logP by entry:
Note: the reply should be a number with no unit written.

// query logP value for entry CCCC(C)O (configuration not stated)
1.34

// query logP value for entry CCC(C)O (configuration not stated)
0.81

----------
assay-overview: method code SF-NMR, from DOI: 10.1021/jm00157a023, PMID: 3806574
measure: logP
Note: the reply should be a number with no unit written.

[[record]]
compound = "O=P(N1CCOCCOCCOCCOCC1)(N1CC1)N1CC1"
measure = "logP"
reading = 0.12

[[record]]
compound = "CCOCCOCCOP(=O)(N1CC1)N1CC1"
measure = "logP"
reading = 0.1


// below: logP requested for another compound
// query logP value for entry CCOCCOCCOP(=O)(N1CC1(C)C)N1CC1(C)C (stereo not drawn)
0.22

----------
assay-overview: method code SF-HPLC, from DOI: 10.1248/cpb.43.1894
# logP >= 3 gives condition met, anything below gives condition not met

The following compounds have reported results that may help.
[[record]]
compound_string = "CSC(=S)C(C)(C)C(=O)c1ccccc1"
class_assignment = "condition met"

[[record]]
compound_string = "CSC(=S)C(C)(C)C(C)=O"
class_assignment = "condition not met"

[[record]]
compound_string = "CSC1=CCCCC1"
class_assignment = "condition met"

[[record]]
compound_string = "CC(C)C(=O)c1ccccc1"
class_assignment = "condition not met"

[[record]]
compound_string = "CSC(=S)c1ccccc1SC"
class_assignment = "condition met"

[[record]]
compound_string = "CSC(=S)C1=C(SC)CCCC1"
class_assignment = "condition met"


Please examine the following record next.
Threshold query (logP >= 3) on S=C1CCCC1=C1SCCS1
condition met

----------
assay-overview: method code SF-MB, from DOI: 10.1016/0378-5173(83)90017-0
test-settings: pH 3.5
measure: logD
Note: the reply should be a number with no unit written.

// query logD value for entry CCCCCC(=O)N[C@@H]1C(=O)N2[C@@H]1SC(C)(C)[C@@H]2C(=O)O
2.37

----------
assay-overview: method code SF-AS, from DOI: 10.1080/09553007214550551, PMID: 4537457
measure: logP

// query logP value for entry CC(=O)c1ccc(Cl)cc1
2.35

----------
measure: logP
Note: the reply should be a number with no unit written.

[[record]]
compound_string = "COc1ccc(N)c([N+](=O)[O-])c1"
reading = 1.86

[[record]]
compound_string = "COc1cccc(Cl)c1"
reading = 2.98

[[record]]
compound_string = "COc1ccc(OC)cc1"
reading = 2.03


// below: logP requested for another compound
// query logP value for entry Cc1ccc(Cl)cc1O
2.63

----------
assay-overview: from Büchel, H.; Draber, W.; Trebst, A.; Pistorius, E. (1966). Inhibition of photosynthetic reactions in isolated chloroplasts by benzimidazole-type herbicides and their structure-activity relation, …
test-settings: pH 7.0
measure: logD
Note: the reply should be a number with no unit written.

// query logD value for entry Clc1nc2c(Cl)c(Cl)c(Cl)c(Cl)c2[nH]1
4.53

----------
# logP >= 2 gives met, anything below gives not met

The following molecules have reported results that may help.
[[record]]
compound_string = "C=C(C)C(=O)OCCCCCCCC(C)C"
class_assignment = "met"

[[record]]
compound_string = "C=C(C)C(=O)OCCCOC(=O)C(=C)C"
class_assignment = "not met"

[[record]]
compound_string = "C=C(C)C(=O)OCC(C)(C)COC(=O)C(=C)C"
class_assignment = "met"


Threshold query (logP >= 2) on C=C(C)C(=O)OCCOC(=O)C(=C)C
not met

Threshold query (logP >= 2) on C=C(C)C(=O)OCC(F)(F)F
not met
